- System under test: Adrenergic receptor alpha-1 (Rattus norvegicus, UniProt P15823+P23944+P43140)
- Assay explanation: Ability to bind at alpha-1 adrenergic receptor by displacing [3H]WB-4101
- Format: protein assay
Endpoint label: IC50 (nM)
One number for each entry, in nM.

Would you please look over these solved cases?
>  <Molecule>
Cl.c1cc2occc2c(N2CCNCC2)n1

>  <Reading unit>
nM

>  <Reported measurement>
426

$$$$
>  <Molecule>
O=C1CSCC(=O)N1CCCCN1CCN(c2nccc3sccc23)CC1

>  <Reading unit>
nM

>  <Reported measurement>
1.1

$$$$
>  <Molecule>
Cl.O=C1c2ccccc2C(=O)N1CCCCN1CCN(c2nccc3sccc23)CC1

>  <Reading unit>
nM

>  <Reported measurement>
0.69

$$$$
>  <Molecule>
O=C1COCC(=O)N1CCCCN1CCN(c2nccc3occc23)CC1

>  <Reading unit>
nM

>  <Reported measurement>
40.9

$$$$
>  <Molecule>
OC(CCCN1CCN(c2nccc3sccc23)CC1)c1ccc(F)cc1 (stereo not given)

>  <Reading unit>
nM

>  <Reported measurement>
22.8

$$$$

Go through the list and state IC50 for each entry.
1. CC1(C)CC(=O)N(CCCCN2CCN(c3nccc4sc(Br)cc34)CC2)C(=O)C1.Cl
2. Cl.OC(CCCN1CCN(c2nccc3occc23)CC1)c1ccc(F)cc1 (stereo not given)
3. Cl.O=C1c2ccccc2S(=O)(=O)N1CCCCN1CCN(c2nccc3sccc23)CC1
4. Cl.c1cc2sccc2c(N2CCNCC2)n1
5. CC1(C)CC(=O)N(CCCCN2CCN(c3nccc4sccc34)CC2)C(=O)C1.Cl

[27.2, 23.8, 1.2, 139, 18.8]
